Biological target: MST1 (Homo sapiens)
Sequence (Q13043 1-487): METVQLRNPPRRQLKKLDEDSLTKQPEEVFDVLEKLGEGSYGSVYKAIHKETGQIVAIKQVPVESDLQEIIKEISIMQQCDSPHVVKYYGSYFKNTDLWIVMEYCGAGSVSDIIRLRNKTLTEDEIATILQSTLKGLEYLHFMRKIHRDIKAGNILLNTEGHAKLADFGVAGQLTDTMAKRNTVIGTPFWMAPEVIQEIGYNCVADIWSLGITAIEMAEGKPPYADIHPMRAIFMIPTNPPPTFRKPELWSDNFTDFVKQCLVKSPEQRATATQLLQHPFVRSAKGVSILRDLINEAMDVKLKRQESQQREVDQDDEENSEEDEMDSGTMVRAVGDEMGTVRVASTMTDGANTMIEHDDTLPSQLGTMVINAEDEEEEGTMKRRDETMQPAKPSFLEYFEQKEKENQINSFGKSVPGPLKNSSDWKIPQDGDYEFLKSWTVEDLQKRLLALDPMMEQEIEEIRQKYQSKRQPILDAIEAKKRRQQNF
Conditions: binder
Reported dTm MST1 values follow for various molecules

MOLECULE: COc1ccc(O)c(Nc2ncc3cc(-c4ccc(-c5cccc(C)n5)cc4Cl)c(=O)n(CCCCN)c3n2)c1 [compound 34]
TARGET OR TEST SYSTEM: MST1 (Homo sapiens)
UNIT LABEL: °C
dTm MST1: 3.8
--
MOLECULE: Cc1cccc(-c2ccc(-c3cc4cnc(Nc5cc(C(F)(F)F)ccc5C)nc4n(CCCCN)c3=O)c(Cl)c2)n1 [compound 28]
TARGET OR TEST SYSTEM: MST1 (Homo sapiens)
UNIT LABEL: °C
dTm MST1: 5.8
--
MOLECULE: Cc1cccc(-c2ccc(-c3cc4cnc(Nc5ccc(CCCO)cc5)nc4n(CCCCN)c3=O)c(Cl)c2)n1 [compound 30]
TARGET OR TEST SYSTEM: MST1 (Homo sapiens)
UNIT LABEL: °C
dTm MST1: 8.7
--
MOLECULE: Cc1cccc(-c2ccc(-c3cc4cnc(Nc5ccc(F)c(CO)c5)nc4n(CCCCN)c3=O)c(Cl)c2)n1 [compound 33]
TARGET OR TEST SYSTEM: MST1 (Homo sapiens)
UNIT LABEL: °C
dTm MST1: 8.6

---

dTm MST1 listing for selected molecules.
molecular target: MST1 (Homo sapiens); conditions: binder
RECORDED METRIC: dTm MST1 (°C)

RECORD SMILES: CNc1ncc2cc(-c3ccc(-c4cccc(C)n4)cc3Cl)c(=O)n(CCCCCO)c2n1
TARGET OR TEST SYSTEM: MST1 (Homo sapiens)
OBSERVED RESULT: 2.4
--
RECORD SMILES: CNc1ncc2cc(-c3ccc(-c4cccc(C)n4)cc3Cl)c(=O)n(CCCO)c2n1
TARGET OR TEST SYSTEM: MST1 (Homo sapiens)
OBSERVED RESULT: 3.4
--
RECORD SMILES: CNc1ncc2cc(-c3ccc(-c4cccc(C)n4)cc3Cl)c(=O)n(CCCCOC)c2n1
TARGET OR TEST SYSTEM: MST1 (Homo sapiens)
OBSERVED RESULT: 3.3
--
RECORD SMILES: CNc1ncc2cc(-c3ccc(-c4cccc(C)n4)cc3Cl)c(=O)n(CCCN)c2n1
TARGET OR TEST SYSTEM: MST1 (Homo sapiens)
OBSERVED RESULT: 2.8
